# system.name: T1, recombinant human NKp30 extracellular domain, his-tagged (human, UniProt O14931 19-135)
# T1 construct: BLI used human NKp30 bought from Abcam (his-tagged ECD); also called rh NKp30 ECD; human NKp30 (Abcam); not shown: his tag
# T1 sequence: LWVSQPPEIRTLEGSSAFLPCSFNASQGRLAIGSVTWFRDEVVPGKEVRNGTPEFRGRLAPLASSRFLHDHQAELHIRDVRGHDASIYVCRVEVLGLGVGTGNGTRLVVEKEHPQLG
# method.description: BLI as in Example 1
recorded.endpoint: Kd (nM)
Just the number in nM, nothing appended.

binder | Kd / nM
VHH1 (parental, as tested in Example 8) (VHH, expressed and measured by BLI 'as described in Experiment 1' (there: bispecific SEEDbody on anti-human Fc sensors)) VHH: DVQLQESGGGLVQPGGSLRLSCATSGFTLDDYTIGWVRQAPGKEHEGVSCFSPSDGTTYYADSVKGRFTFSRDNAKNTVYLQMNSLKPEDTAVYYCAASFADGSSWCYDYWGQGTQVTVSS | 0.248
VHH1.5 (humanized) (VHH, expressed and measured by BLI 'as described in Experiment 1' (there: bispecific SEEDbody on anti-human Fc sensors)) VHH: EVQLVESGGGVVQPGGSLRLSCAASGFTLDDYTIGWVRQAPGKGLEGVSCFSPSDGTTYYADSVKGRFTISRDNAKNTVYLQMNSLRAEDTAVYYCAASFADGSSWCYDYWGQGTLVTVSS | 0.888
VHH1.9 (humanized) (VHH, expressed and measured by BLI 'as described in Experiment 1' (there: bispecific SEEDbody on anti-human Fc sensors)) VHH: EVQLVESGGGVVQPGGSLRLSCAASGFTLDDYTIGWVRQAPGKGLEGVSCFSPSDGTTYYADSVKGRFTISRDNAKNTLYLQMNSLRAEDTAVYYCAASFADGSSWCYDYWGQGTLVTVSS | 1.06
VHH1.6 (humanized) (VHH, expressed and measured by BLI 'as described in Experiment 1' (there: bispecific SEEDbody on anti-human Fc sensors)) VHH: EVQLVESGGGVVQPGGSLRLSCATSGFTLDDYTIGWVRQAPGKGLEGVSCFSPSDGTTYYADSVKGRFTFSRDNAKNTLYLQMNSLRAEDTAVYYCAASFADGSSWCYDYWGQGTLVTVSS | 0.797
VHH1.2 (humanized) (VHH, expressed and measured by BLI 'as described in Experiment 1' (there: bispecific SEEDbody on anti-human Fc sensors)) VHH: EVQLVESGGGVVQPGGSLRLSCATSGFTLDDYTIGWVRQAPGKEHEGVSCFSPSDGTTYYADSVKGRFTFSRDNAKNTLYLQMNSLRAEDTAVYYCAASFADGSSWCYDYWGQGTLVTVSS | 0.293
VHH1.1 (humanized) (VHH, expressed and measured by BLI 'as described in Experiment 1' (there: bispecific SEEDbody on anti-human Fc sensors)) VHH: EVQLVESGGGVVQPGGSLRLSCATSGFTLDDYTIGWVRQAPGKEHEGVSCFSPSDGTTYYADSVKGRFTFSRDNAKNTVYLQMNSLRAEDTAVYYCAASFADGSSWCYDYWGQGTLVTVSS | 0.275
VHH1.7 (humanized) (VHH, expressed and measured by BLI 'as described in Experiment 1' (there: bispecific SEEDbody on anti-human Fc sensors)) VHH: EVQLVESGGGVVQPGGSLRLSCAASGFTLDDYTIGWVRQAPGKGLEGVSCFSPSDGTTYYADSVKGRFTFSRDNAKNTLYLQMNSLRAEDTAVYYCAASFADGSSWCYDYWGQGTLVTVSS | 0.533

Consider the record given below.
The binder listed as VHH1.4 (humanized) (VHH, expressed and measured by BLI 'as described in Experiment 1' (there: bispecific SEEDbody on anti-human Fc sensors)) VHH: EVQLVESGGGVVQPGGSLRLSCATSGFTLDDYTIGWVRQAPGKGLEGVSCFSPSDGTTYYADSVKGRFTFSRDNAKNTVYLQMNSLRAEDTAVYYCAASFADGSSWCYDYWGQGTLVTVSS shows Kd equal to 0.547
